ASSAY_TEXT: in vitro
TEST_SETTINGS: human
PROPERTY_LABEL: CC50

Worked cases, answers included:
COMPOUND: O=C(NC1CC1)C(=O)[C@H](C[C@@H]1CCNC1=O)NC(=O)[C@@H]1CC2(CCN1C(=O)c1cc3ccccc3o1)CC2 [Compound 181]
CC50: > 10 µM
--
COMPOUND: COc1cccc2[nH]c(C(=O)N3C[C@@H]4CCC[C@@H]4[C@H]3C(=O)NC(C[C@@H]3CCNC3=O)C(=O)C(=O)NCc3ccccc3)cc12 (some centres unmarked) [Compound 16]
CC50: > 10 µM
--
COMPOUND: COc1cccc2[nH]c(C(=O)N3C[C@@H]4CCC[C@@H]4[C@H]3C(=O)NC(CN3CCCC3=O)C(=O)C(=O)NC3CC3)cc12 (single isomer, unassigned) [Compound 113A]
CC50: > 50 µM
--
COMPOUND: O=C1NCC[C@H]1C[C@H](NC(=O)[C@@H]1[C@H]2CCC[C@H]2CN1C(=O)c1cc2c(OC(F)F)cccc2[nH]1)C(=O)CO [Compound 87]
CC50: > 10 µM
--
COMPOUND: COc1ccc(Br)c2[nH]c(C(=O)N3C[C@@H]4CCC[C@@H]4[C@H]3C(=O)N[C@@H](C[C@@H]3CCNC3=O)C(=O)CO)cc12 [Compound 124]
CC50: > 50 µM

input: Look up CC50: O=C(NCc1ccccc1)C(=O)C(C[C@@H]1CCNC1=O)NC(=O)[C@@H]1C[C@@H](c2ccccc2)CN1C(=O)c1cc2ccccc2[nH]1 (some centres unmarked) [Compound 7]
output: > 10 µM

input: Fill blank: measured CC50 of the compound O=C(NCc1ccccc1)C(=O)[C@H](Cc1cccnc1)NC(=O)[C@@H]1CC2(CC2)CN1C(=O)c1cc2ccccc2[nH]1 [Compound 111] is ____.
output: > 10 µM

input: // returns reported CC50 for input COc1cccc2[nH]c(C(=O)N3C[C@@H]4CCC[C@@H]4[C@H]3C(=O)N[C@@H](CN3CC[C@H](O)C3=O)C(=O)C(=O)NC3CC3)cc12 [Compound 115]
output: > 10 µM

input: CC50 for N#C[C@H](C[C@@H]1CCNC1=O)NC(=O)[C@@H]1[C@H]2CCC[C@H]2CN1C(=O)c1cc2c(Cl)ccc(Cl)c2[nH]1 [Compound 167] ?
output: > 10 µM

input: Give the measured CC50 of CNc1cccc2[nH]c(C(=O)N3C[C@@H]4CCC[C@@H]4[C@H]3C(=O)N[C@@H](C[C@@H]3CCNC3=O)C(=O)CO)cc12 [Compound 153] .
output: > 10 µM

input: For the compound shown here, COc1ccc(Cl)c2[nH]c(C(=O)N3C[C@@H]4CCC[C@@H]4[C@H]3C(=O)N[C@@H](C[C@@H]3CCNC3=O)C(=O)CO)cc12 [Compound 89] , give the reported CC50.
output: > 50 µM

input: What measured CC50 goes with CS(=O)(=O)c1cccc2[nH]c(C(=O)N3C[C@@H]4CCC[C@@H]4[C@H]3C(=O)N[C@@H](C[C@@H]3CCNC3=O)C(=O)CO)cc12 [Compound 150] ?
output: > 50 µM

input: For the compound shown here, COCCNC(=O)C(=O)[C@H](C[C@@H]1CCNC1=O)NC(=O)[C@@H]1[C@H]2CCC[C@H]2CN1C(=O)c1cc2c(OC)cccc2[nH]1 [Compound 100] , give the reported CC50.
output: > 50 µM

input: Consider the compound COc1cc(Cl)c(Cl)c2[nH]c(C(=O)N3C[C@@H]4CCC[C@@H]4[C@H]3C(=O)N[C@@H](C[C@@H]3CCNC3=O)C(=O)CO)cc12 [Compound 158] and give its measured CC50.
output: > 10 µM

input: Find the recorded CC50 belonging to O=C1NCC[C@H]1C[C@H](NC(=O)[C@@H]1[C@H]2CCC[C@H]2CN1C(=O)c1cc2c([nH]1)CCCC2)C(=O)CO [Compound 83] and report it.
output: > 50 µM

input: What value of measured CC50 is listed for O=C(NC1CC1)C(=O)[C@H](C[C@@H]1CCNC1=O)NC(=O)[C@@H]1CC2(CCN1C(=O)c1cc3cc(F)ccc3[nH]1)CC2 [Compound 147] ?
output: > 50 µM

input: Quick one: CC50 for COc1cccc2[nH]c(C(=O)N3C[C@@H]4CCC[C@@H]4[C@H]3C(=O)N[C@@H](C[C@@H]3CCNC3=O)C(=O)C(=O)NC3CCOCC3)cc12 [Compound 104] ?
output: > 100 µM

input: Tell me the measured CC50 of CC(C)COCCNC(=O)C(=O)[C@H](C[C@@H]1CCNC1=O)NC(=O)[C@@H]1[C@H]2CCC[C@H]2CN1C(=O)c1cc2c(Cl)cc(Cl)cc2[nH]1 [Compound 149] , please.
output: 1 to 10 µM

input: Consider the compound shown here: COc1cccc2[nH]c(C(=O)N3C[C@@H]4CCC[C@@H]4[C@H]3C(=O)N[C@@H](C[C@@H]3CCNC3=O)C(=O)C(=O)N[C@H]3CCOC3)cc12 [Compound 103] What is its recorded CC50?
output: > 100 µM

input: Which CC50 value belongs to COc1cccc2[nH]c(C(=O)N3C[C@@H]4CCC[C@@H]4[C@H]3C(=O)N[C@@H](C[C@@H]3CCNC3=O)C(=O)C(=O)NCCOCc3ccccc3)cc12 [Compound 101] ?
output: > 50 µM

input: May I ask what CC50 has been recorded for COc1cccc2[nH]c(C(=O)N3C[C@@H]4CCC[C@@H]4[C@H]3C(=O)N[C@@H](C[C@@H]3CCNC3=O)C(=O)C(=O)NCCO)cc12 [Compound 107] ?
output: > 50 µM

input: Can you share its CC50? I mean this compound: COc1cccc2[nH]c(C(=O)N3C[C@@H]4CCC[C@@H]4[C@H]3C(=O)NC(C[C@@H]3CCNC3=O)C(=O)C(C)O)cc12 (some centres unmarked) [Compound 62]
output: > 100 µM

input: What value of CC50 has been recorded for this entry: COc1cccc2[nH]c(C(=O)N3C[C@@H]4CCC[C@@H]4[C@H]3C(=O)N[C@@H](C[C@@H]3CCNC3=O)C(=O)COCc3ccccc3)cc12 [Compound 27A]
output: > 10 µM

----------
ASSAY_TEXT: in vitro
TEST_SETTINGS: human
PROPERTY_LABEL: CC50

COMPOUND: O=C(NCCOC1CCCC1)C(=O)[C@H](C[C@@H]1CCNC1=O)NC(=O)[C@@H]1[C@H]2CCC[C@H]2CN1C(=O)c1cc2c(Cl)cc(Cl)cc2[nH]1
CC50: 1 to 10 µM
--
COMPOUND: COc1cccc2[nH]c(C(=O)N3C[C@]4(C[C@H]3C(=O)NC(C[C@@H]3CCCNC3=O)C(=O)C(=O)NCc3ccccc3)CC4(F)F)cc12 (stereo partly drawn)
CC50: > 100 µM
--
COMPOUND: COc1cccc2[nH]c(C(=O)N3C[C@H]4[C@@H]([C@H]3C(=O)N[C@@H](C[C@@H]3CCCNC3=O)C(=O)COCc3ccccc3)C4(C)C)cc12 [Compound 49A]
CC50: > 10 µM
--
COMPOUND: COc1cccc2sc(C(=O)N3C[C@@H]4CCC[C@@H]4[C@H]3C(=O)N[C@@H](C[C@@H]3CCNC3=O)C(=O)CO)cc12
CC50: > 100 µM
--
COMPOUND: O=C(NCCOCC1CCCC1)C(=O)[C@H](C[C@@H]1CCNC1=O)NC(=O)[C@@H]1[C@H]2CCC[C@H]2CN1C(=O)c1cc2c(Cl)cc(Cl)cc2[nH]1
CC50: 1 to 10 µM

Let us examine a further case.
input: Query: CC50; subject: CC(C)NC(=O)C(=O)C(C[C@@H]1CCCNC1=O)NC(=O)[C@@H]1[C@H]2CCC[C@H]2CN1C(=O)c1cc2ccccc2[nH]1 (stereo partly drawn)
output: > 100 µM

----------
SYSTEM_NAME: human cathepsin L (Homo sapiens, UniProt P07711)
Construct: purchased R&D Systems
ASSAY_TEXT: cathepsin L assay
Assay type: biochemical
TEST_SETTINGS: 10 pM human cathepsin L, Z-FR-AMC 2 μM, class symbols
pIC50: −log10 of the molar value.
PROPERTY_LABEL: pIC50

Sample records with pIC50:
MOLECULAR_STRING: COc1cccc2[nH]c(C(=O)N3C[C@H]4[C@@H]([C@H]3C(=O)N[C@@H](C[C@@H]3CCCNC3=O)C(=O)C(=O)NC3CC3)C4(C)C)cc12
pIC50: ≤ 5.00
--
MOLECULAR_STRING: O=C(NCCCC(F)(F)F)C(=O)[C@H](C[C@@H]1CCNC1=O)NC(=O)[C@@H]1[C@H]2CCC[C@H]2CN1C(=O)c1cc2c(Cl)cc(Cl)cc2[nH]1
pIC50: ≤ 5.00
--
MOLECULAR_STRING: O=C[C@H](C[C@@H]1CCNC1=O)NC(=O)[C@@H]1[C@H]2CCC[C@H]2CN1C(=O)c1cc2ccccc2[nH]1
pIC50: 5.00 to 6.00
--
MOLECULAR_STRING: O=C1NCC[C@H]1C[C@H](NC(=O)[C@@H]1[C@H]2CCC[C@H]2CN1C(=O)c1cc2c(Cl)c(F)c(Cl)cc2[nH]1)C(=O)CO
pIC50: ≤ 5.00

input: Which pIC50 value is on record for `O=C(NC1CC1)C(=O)[C@H](C[C@@H]1CCNC1=O)NC(=O)[C@@H]1CC2(CCN1C(=O)c1cc3c(F)cccc3[nH]1)CC2` ?
output: 5.00 to 6.00

input: Which pIC50 is reported for this compound? `COc1cccc2[nH]c(C(=O)N3C[C@@H]4CCC[C@@H]4[C@H]3C(=O)N[C@@H](C[C@@H]3CCNC3=O)C(=O)c3nc4ccccc4o3)cc12`
output: ≤ 5.00
